Entry source: patent US20260242478A1

target: T1, Anti-PSMA Fab (SEQ ID NOs: 19, 20); test: phage binding ELISA; biotinylated anti-PSMA Fab on neutravidin plate, clonal phage supernatant, anti-M13 HRP detection
T1 construct: Biotinylated and captured on neutravidin coated plates in the phage ELISA; also called 006 PSMA Fab
Each record here notes measured Anti-PSMA Fab (SEQ ID NOs: 19, 20) signal.
Could you keep your reply to the number by itself?

Please review the entries below; each comes with its answer.
VHNWCIPSWMCEGL [Phage-2107] ... 1.73
GVNWCIPDWMCVGM [Phage-2104] ... 1.73

Continue with the next binder.
Give the measured Anti-PSMA Fab (SEQ ID NOs: 19, 20) signal of GEIWCIPRWMCESF [Phage-2115] .
1.72
